All figures here come from patent US20260325540A1.

Values of pIC50 reported for MERS-CoV 3CLpro (Middle East respiratory syndrome-related coronavirus, UniProt K9N638) appear below.
pIC50: −log10 of the molar value.

Memo: CC1(C)[C@@H]2[C@H]3C(=O)N[C@H](C#N)C[C@@H]4C(=O)NCC[C@@H]4CCCC[C@H](NC(=O)c4ccc(F)cc4F)C(=O)N3C[C@@H]21 , reported pIC50: > 7.00

Entry N#C[C@@H]1C[C@@H]2C(=O)NC[C@@H]2CCCC[C@H](NC(=O)OC2CCCC2)C(=O)N2C[C@@H]3CCC[C@@H]3[C@H]2C(=O)N1 — recorded pIC50 = > 7.00

Record CC(C)(C)C[C@@H]1NC(=O)[C@@H](NC(=O)C2(C(F)(F)F)CC2)CCCC[C@H]2CNC(=O)[C@H]2C[C@@H](C#N)NC1=O . Reported pIC50: 6.00 to 7.00

----------
molecular target: UniProtKB P0DTD1; test: FRET based protease assay, SARS-CoV-2 3CL
quantity_name: IC50

// solved cases for IC50 follow
CC(C)C[C@@H]1NC(=O)[C@@H](Cc2ccccc2)CCC[C@H]2CNC(=O)[C@@H]2C[C@@H](C=O)NC1=O [Example 17] | 100 to 1000 nM
CC1(C)[C@@H]2[C@H]3C(=O)N[C@H](C#N)C[C@@H]4C(=O)NC[C@@H]4CCCC[C@H](NC(=O)c4ccc(F)cc4C(F)(F)F)C(=O)N3C[C@@H]21 [Example 139] | < 100 nM
CC(C)C[C@@H]1NC(=O)[C@@H](NC(=O)OC(C)(C)C)CCC[C@H]2CNC(=O)[C@H]2C[C@@H](C=O)NC1=O [Example 15] | 100 to 1000 nM
N#C[C@@H]1C[C@@H]2C(=O)NC[C@@H]2CCCC[C@H](NC(=O)OC2CCCC2)C(=O)N2C[C@@H]3CCC[C@@H]3[C@H]2C(=O)N1 [Example 94] | < 100 nM
CC1(C)[C@@H]2[C@H]3C(=O)N[C@H](C#N)C[C@@H]4C(=O)NC[C@@H]4CCCC[C@H](NC(=O)c4ccc(F)c(C(F)(F)F)c4)C(=O)N3C[C@@H]21 [Example 116] | < 100 nM

Here's the next entry for you.
Lookup result for CC(C)C[C@@H]1NC(=O)[C@@H](C2CCCC2)CCCC[C@H]2CNC(=O)[C@H]2C[C@@H](C#N)NC1=O [Example 41] ; measured IC50: > 20000 nM

----------
target: SARS-CoV-2 3CLpro (Severe acute respiratory syndrome coronavirus 2, UniProt P0DTD1); experiment: FRET based protease assay, SARS-CoV-2 3CL
quantity_name: IC50

CC(C)(C)C(=O)N[C@H]1C/C=C/[C@H]2CNC(=O)[C@H]2C[C@@H](C#N)NC(=O)[C@@H]2[C@@H]3[C@H](CN2C1=O)C3(C)C | < 100 nM
CC1(C)[C@@H]2[C@H]3C(=O)N[C@H](C#N)C[C@@H]4C(=O)NC[C@@H]4CCCC[C@H](NC(=O)c4cc(C(F)(F)F)on4)C(=O)N3C[C@@H]21 | < 100 nM
CC1(C)[C@@H]2[C@H]3C(=O)N[C@H](C#N)C[C@@H]4C(=O)NC[C@@H]4CCCC[C@H](NC(=O)c4cccc(Cl)c4Cl)C(=O)N3C[C@@H]21 | < 100 nM
CC(C)C[C@@H]1NC(=O)[C@@H](Cc2ccc(F)cc2)CCCC[C@@H]2CNC(=O)[C@@H]2C[C@@H](C#N)NC1=O | 1000 to 20000 nM
CC(C)(C)OC(=O)N[C@H]1CC/C=C/[C@H]2CNC(=O)[C@H]2C[C@@H](C#N)NC(=O)[C@@H]2[C@H]3CCC[C@H]3CN2C1=O | < 100 nM
CC(C)C[C@@H]1NC(=O)CCCCC[C@H]2CNC(=O)[C@H]2C[C@@H](C=O)NC1=O | 100 to 1000 nM
N#C[C@@H]1C[C@@H]2C(=O)NCC[C@@H]2CCCC[C@H](NC(=O)OC2CCCC2)C(=O)N2C[C@@H]3CCC[C@@H]3[C@H]2C(=O)N1 | < 100 nM
CC1(C)[C@@H]2[C@H]3C(=O)N[C@H](C#N)C[C@@H]4C(=O)NC[C@@H]4CCCC[C@H](NC(=O)C45CCC(C4)C5)C(=O)N3C[C@@H]21 | < 100 nM
CC1(C)[C@@H]2[C@H]3C(=O)N[C@H](C#N)C[C@@H]4C(=O)NC[C@@H]4CCCC[C@H](NS(=O)(=O)C4(C)CC4)C(=O)N3C[C@@H]21 | < 100 nM
CC(C)C[C@@H]1NC(=O)CCCCC[C@H]2CCNC(=O)[C@@H]2C[C@@H](C=O)NC1=O | 100 to 1000 nM

Noted for N#C[C@@H]1C[C@@H]2C(=O)NC[C@@H]2CCCC[C@H](NC(=O)C2(C(F)(F)F)CC2)C(=O)N2C[C@@H]3CCC[C@@H]3[C@H]2C(=O)N1 : its IC50 reads < 100 nM

Given item CC(C)(C)C(=O)N[C@H]1CCCC[C@H]2CCNC(=O)[C@@H]2C[C@@H](C#N)NC(=O)[C@@H]2[C@@H]3[C@H](CN2C1=O)C3(C)C , the value recorded as its IC50 is < 100 nM

The compound listed as CC(C)C[C@@H]1NC(=O)[C@@H](Cc2ccccc2)CCC[C@@H]2CNC(=O)[C@@H]2C[C@@H](C=O)NC1=O has a reported IC50 of 100 to 1000 nM

Measured IC50, CC1(C)[C@@H]2[C@H]3C(=O)N[C@H](C#N)C[C@@H]4C(=O)NC[C@@H]4CCCC[C@H](NC(=O)C4(C(F)(F)F)CC4)C(=O)N3C[C@@H]21 : < 100 nM

Record CC(C)(C)OC(=O)N[C@H]1CCCC[C@H]2CNC(=O)[C@H]2C[C@@H](C#N)NC(=O)[C@@H]2CC3(CC3)CN2C1=O . Reported IC50: 100 to 1000 nM

IC50 recorded for this compound, CC(C)(C)NC(=O)[C@@H]1CCCC[C@H]2CNC(=O)[C@H]2C[C@@H](C#N)NC(=O)[C@@H]2[C@@H]3[C@H](CN2C1=O)C3(C)C , is 1000 to 20000 nM

In plain terms, Cc1nc(C(=O)N[C@H]2CCCC[C@H]3CNC(=O)[C@H]3C[C@@H](C#N)NC(=O)[C@@H]3[C@@H]4[C@H](CN3C2=O)C4(C)C)co1 has a documented IC50 of < 100 nM

----------
molecular target: SARS-CoV-2 3CLpro (Severe acute respiratory syndrome coronavirus 2); assay: FRET based protease assay, SARS-CoV-2 3CL
pIC50: −log10 of the molar value.
quantity_name: pIC50

CC(C)(C)COC(=O)N[C@H]1CCCC[C@H]2CNC(=O)[C@H]2C[C@@H](C#N)NC(=O)[C@@H]2[C@@H]3[C@H](CN2C1=O)C3(C)C | > 7.00
CC1(C)[C@@H]2[C@H]3C(=O)N[C@H](C#N)C[C@@H]4C(=O)NC[C@@H]4CCCC[C@H](NC(=O)c4ccc(F)cc4F)C(=O)N3C[C@@H]21 | > 7.00
CC(C)C[C@@H]1NC(=O)[C@@H](C2CCCC2)CCC[C@H]2CNC(=O)[C@H]2C[C@@H](C=O)NC1=O | 4.70 to 6.00
CC(C)C[C@@H]1NC(=O)[C@@H](C2CCCC2)CCC[C@@H]2CNC(=O)[C@@H]2C[C@@H](C=O)NC1=O | 6.00 to 7.00
CC(C)(C)OC(=O)N[C@H]1COCCC[C@H]2CNC(=O)[C@H]2C[C@@H](C#N)NC(=O)[C@@H]2[C@@H]3[C@H](CN2C1=O)C3(C)C | > 7.00

Here is another compound to look at.
The compound listed as CC(C)C[C@@H]1NC(=O)CCCCC[C@@H]2CCNC(=O)[C@H]2C[C@@H](C=O)NC1=O shows pIC50 equal to < 4.70

----------
target: UniProt P0DTD1; test: FRET based protease assay, SARS-CoV-2 3CL
quantity_name: IC50

// worked examples, IC50 included
CC1(C)[C@@H]2[C@H]3C(=O)N[C@H](C#N)C[C@@H]4C(=O)NC[C@@H]4CCCC[C@H](NS(=O)(=O)c4ccccc4)C(=O)N3C[C@@H]21 [Example 154] | < 100 nM
CC(C)C[C@@H]1NC(=O)[C@@H](Cc2cccc(C(F)(F)F)c2)CCCC[C@H]2CNC(=O)[C@H]2C[C@@H](C#N)NC1=O [Example 40] | 1000 to 20000 nM
CC1(C)[C@@H]2[C@H]3C(=O)N[C@H](C#N)C[C@@H]4C(=O)NC[C@@H]4CCCC[C@H](NC(=O)c4ccncn4)C(=O)N3C[C@@H]21 [Example 91] | < 100 nM
CC1(C)[C@@H]2[C@H]3C(=O)N[C@H](C#N)C[C@@H]4C(=O)NC[C@@H]4CCCC[C@H](NC(=O)c4ccc(Cl)c(Cl)c4)C(=O)N3C[C@@H]21 [Example 120] | < 100 nM
CC(C)(C)OC(=O)N[C@H]1CCCC[C@H]2CNC(=O)[C@H]2C[C@@H](C#N)NC(=O)[C@H](CC2CCCC2)NC1=O [Example 137] | < 100 nM

Memo: CC(C)(C)OC(=O)N[C@@]1(C)CCCCC[C@H]2CNC(=O)[C@H]2C[C@@H](C#N)NC(=O)[C@@H]2[C@@H]3[C@H](CN2C1=O)C3(C)C [Example 126] , reported IC50: > 20000 nM

Lookup result for CC1(C)[C@@H]2[C@H]3C(=O)N[C@H](C#N)C[C@@H]4C(=O)NC[C@@H]4CCCC[C@H](NC(=O)C4CCOCC4)C(=O)N3C[C@@H]21 [Example 85] ; measured IC50: < 100 nM

What the record says about CC(C)(C)OC(=O)NN1CCCC[C@H]2CNC(=O)[C@H]2C[C@@H](C#N)NC(=O)[C@@H]2[C@@H]3[C@H](CN2C1=O)C3(C)C [Example 168] : IC50 is 1000 to 20000 nM
